Every entry's value here was drawn from paper PMC6352943.

# Test system: HS 578T
# protocol.description: NCI 60 cell line single dose screen (SRB)
# Type: cell-based
# measurement.context: Homo sapiens; HS 578T (breast cancer), single dose 10^−5 M, 48 h; read-out: Growth inhibition percentage
Quick reference: inhibition at 10 µM of the listed items.
The answer is to be given in %; state only the numeric part.

Worked examples, 2 compounds total:
> print(dat)
                                   compound  measurement.target         assay.metric  readout.units  observed.value
1    Cc1nn(-c2ccc(F)cc2)c2ncnc(N3CCOCC3)c12             HS 578T  inhibition at 10 µM              %           -4.78
2  COc1cc(C=NNc2ncnc3c2c(C)nn3-c2ccc(F)cc2)cc(OC)c1OC [Compound 10c]             HS 578T  inhibition at 10 µM              %            13.9

// moving on: another record for inhibition at 10 µM
Per the record, Cc1nn(-c2ccc(F)cc2)c2ncnc(NN)c12 has inhibition at 10 µM of -4.22

###

# Test system: MDA-MB-435
# protocol.description: NCI 60 cell line single dose screen (SRB)
# Assay type: cell-based
# measurement.context: Homo sapiens; MDA-MB-435 (melanoma), single dose 10^−5 M, 48 h; read-out: Growth inhibition percentage
Quick reference: inhibition at 10 µM of the listed items.

Form: item COc1ccc(N2CCN(c3ncnc4c3c(C)nn4-c3ccc(F)cc3)CC2)cc1 ; test system MDA-MB-435; inhibition at 10 µM: -6.1%

Form: item Cc1nn(-c2ccc(F)cc2)c2ncnc(N3CCOCC3)c12 ; test system MDA-MB-435; inhibition at 10 µM: -2.24%

###

# System: PC-3
# protocol.description: NCI 60 cell line single dose screen (SRB)
# Assay type: cell-based
# measurement.context: Homo sapiens; PC-3 (prostate cancer), single dose 10^−5 M, 48 h; read-out: Growth inhibition percentage
# cutoff 10% applies to inhibition at 10 µM; >= gives T, < gives F

Previously resolved entries follow.
> print(dat)
                                   compound  measurement.target  discrete.label
1  Cc1nn(-c2ccc(F)cc2)c2ncnc(Nc3ccc(F)c(Cl)c3)c12                PC-3               T
2  COc1ccc(N2CCN(c3ncnc4c3c(C)nn4-c3ccc(F)cc3)CC2)cc1                PC-3               T
3  Cc1ccc(Nc2ncnc3c2c(C)nn3-c2ccc(F)cc2)cc1                PC-3               F
4           Cc1nn(-c2ccc(F)cc2)c2ncnc(N)c12                PC-3               F

Data request: Dear colleague, could you confirm whether Cc1nn(-c2ccc(F)cc2)c2ncnc(Cl)c12 has inhibition at 10 µM at or above 10%?
Data returned: T

Data request: Dear colleague, could you confirm whether COc1cc(C=NNc2ncnc3c2c(C)nn3-c2ccc(F)cc2)ccc1O [Compound 10b] has inhibition at 10 µM at or above 10%?
Data returned: T

Data request: Dear colleague, could you confirm whether Cc1nn(-c2ccc(F)cc2)c2ncnc(N3CCN(c4ccc(Cl)cc4)CC3)c12 has inhibition at 10 µM at or above 10%?
Data returned: T
